- EXPERIMENT: Validation screen for small molecules that induce DNA re-replication in MCF 10A normal breast cells (AID 463097); further: nearly all actives have a fitted effect of over 60% in size
- TEST SETTINGS: MCF 10A cells, DNA re-replication phenotype imaging; series mostly up to 46.1 µM
Records with an inconclusive call do not appear. Calls of active or inactive are those of the source. The call rests on the fitted dose curve; in most records, active means well fitted activation curve with a large enough effect; inconclusive means small, poorly fitted or top-dose-only effect; inactive means flat fitted curve, though single readings scatter.
// classify into 1 (yes) for active, 0 (no) for inactive

1) OCc1ccc(-c2nn(Cc3ccccc3)c3ccccc23)o1 = 1 (yes)
2) NC(=O)c1cccc(N)c1 = 0 (no)
3) CC(C)NCC(O)c1ccc(NS(C)(=O)=O)cc1 (stereo unspecified) = 0 (no)
4) CCCCS(=N)(=O)CCC(N)C(=O)O (stereo unspecified) = 0 (no)

input: # lookup: test call for CC1=C(C(=O)O)N2C(=O)[C@@H](NC(=O)C(N)c3ccccc3)[C@H]2SC1 (stereo partly specified)
output: 0 (no)

input: Moving on to the next compound: O=C(O)C1CCCN(CCC=C(c2ccccc2)c2ccccc2)C1 (stereo unspecified)
output: 0 (no)

The reported numbers originate from PubChem BioAssay (NCATS).
